Biological target: Human recombinant PDE3A (hPDE3A) (Homo sapiens)
Construct: purchased Scottish Biomedical; host or cells: Sf9 insect cells
Sequence (Q14432 whole entry): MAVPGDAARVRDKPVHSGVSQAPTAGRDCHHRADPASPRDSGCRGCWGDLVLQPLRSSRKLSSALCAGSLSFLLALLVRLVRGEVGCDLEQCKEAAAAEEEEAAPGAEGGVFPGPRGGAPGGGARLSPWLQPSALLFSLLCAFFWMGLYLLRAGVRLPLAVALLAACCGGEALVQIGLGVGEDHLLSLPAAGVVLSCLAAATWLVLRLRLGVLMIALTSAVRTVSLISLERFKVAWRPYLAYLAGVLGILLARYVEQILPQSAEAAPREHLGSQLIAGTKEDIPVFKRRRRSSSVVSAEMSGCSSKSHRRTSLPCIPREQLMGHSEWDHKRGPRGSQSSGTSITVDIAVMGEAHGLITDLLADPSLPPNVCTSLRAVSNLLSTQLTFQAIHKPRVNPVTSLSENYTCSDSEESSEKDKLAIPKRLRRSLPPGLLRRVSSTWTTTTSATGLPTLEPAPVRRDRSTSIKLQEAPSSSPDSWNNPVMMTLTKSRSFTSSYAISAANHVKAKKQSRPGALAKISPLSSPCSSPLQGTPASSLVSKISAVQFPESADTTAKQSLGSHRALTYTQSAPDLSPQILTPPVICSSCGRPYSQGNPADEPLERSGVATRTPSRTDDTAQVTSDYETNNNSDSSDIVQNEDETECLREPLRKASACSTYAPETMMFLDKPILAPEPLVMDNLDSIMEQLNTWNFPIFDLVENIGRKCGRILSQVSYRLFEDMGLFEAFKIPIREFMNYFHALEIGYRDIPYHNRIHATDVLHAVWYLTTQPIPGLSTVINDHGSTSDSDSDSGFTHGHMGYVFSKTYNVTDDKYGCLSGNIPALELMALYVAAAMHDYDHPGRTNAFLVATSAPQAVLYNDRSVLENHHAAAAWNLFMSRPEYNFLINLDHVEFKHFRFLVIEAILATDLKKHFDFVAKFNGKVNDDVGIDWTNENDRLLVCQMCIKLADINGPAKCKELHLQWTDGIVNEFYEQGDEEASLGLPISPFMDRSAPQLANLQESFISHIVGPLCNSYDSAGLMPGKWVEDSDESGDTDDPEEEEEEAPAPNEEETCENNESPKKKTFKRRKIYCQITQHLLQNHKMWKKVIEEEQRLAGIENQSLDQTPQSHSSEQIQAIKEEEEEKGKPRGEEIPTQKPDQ
Assay: In vitro assay PDE3A (SPA, 3H-cAMP hydrolysis);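 further: the method names PDE3A and the table heading PDE3B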
Type: biochemical
Details: hPDE3B pIC50; read-out: pIC50 (converted)
Entries and their IC50 values follow.
A number alone suffices; assume µM.

Example compounds with recorded IC50:
[[record]]
substance_smiles = "COc1cc(C(=O)N2CC[C@@H](C)[C@H](c3cc(C(F)F)nc4ncnn34)C2)cc(C)n1"
study_system = "Human recombinant PDE3A (hPDE3A) (Homo sapiens)"
recorded_value = 3.39

[[record]]
substance_smiles = "Cc1nn(C)c2sc(C(=O)N3[C@H]4CC[C@H](c5cc(C(F)F)nc6ncnn56)[C@@H]3CC4)cc12"
study_system = "Human recombinant PDE3A (hPDE3A) (Homo sapiens)"
recorded_value = 7.24


Kindly consider the entry below.
For COc1cccc2cc(C(=O)N3CC[C@@H](C)[C@H](c4cc(C(F)F)nc5ncnn45)C3)oc12 on Human recombinant PDE3A (hPDE3A) (Homo sapiens), measured IC50 was 1.35

---

Molecular target: PDE2A (Rattus norvegicus, UniProt Q01062)
Construct: Twenty μm-thick striatal sections were cut; from tissue; host or cells: rat brain, striatal sections
Sequence (Q01062 whole entry): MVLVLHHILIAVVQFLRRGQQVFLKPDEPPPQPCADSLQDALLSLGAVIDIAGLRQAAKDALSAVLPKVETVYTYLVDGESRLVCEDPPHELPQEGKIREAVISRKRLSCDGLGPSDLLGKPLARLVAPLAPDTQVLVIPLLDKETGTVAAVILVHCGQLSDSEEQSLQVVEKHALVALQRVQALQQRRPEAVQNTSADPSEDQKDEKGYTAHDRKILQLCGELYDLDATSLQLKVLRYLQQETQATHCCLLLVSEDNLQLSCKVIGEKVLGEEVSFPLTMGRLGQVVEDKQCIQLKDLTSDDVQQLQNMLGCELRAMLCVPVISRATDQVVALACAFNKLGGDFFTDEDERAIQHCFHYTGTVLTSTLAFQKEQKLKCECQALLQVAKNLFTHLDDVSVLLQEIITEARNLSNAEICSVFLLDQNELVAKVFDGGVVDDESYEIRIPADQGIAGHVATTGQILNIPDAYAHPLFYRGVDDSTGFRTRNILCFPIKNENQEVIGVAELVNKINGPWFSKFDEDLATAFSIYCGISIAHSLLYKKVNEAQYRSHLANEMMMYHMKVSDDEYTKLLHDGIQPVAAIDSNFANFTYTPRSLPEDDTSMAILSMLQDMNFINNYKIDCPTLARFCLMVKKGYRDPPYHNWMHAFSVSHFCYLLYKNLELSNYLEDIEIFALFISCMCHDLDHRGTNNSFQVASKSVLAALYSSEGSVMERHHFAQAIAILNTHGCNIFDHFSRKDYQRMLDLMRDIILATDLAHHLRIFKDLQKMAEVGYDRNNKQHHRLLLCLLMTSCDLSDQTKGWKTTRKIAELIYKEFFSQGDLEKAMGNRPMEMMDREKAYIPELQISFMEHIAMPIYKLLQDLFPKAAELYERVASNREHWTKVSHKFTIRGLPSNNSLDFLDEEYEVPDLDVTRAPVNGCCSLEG
Assay: PDE2 occupancy by test compounds, ex-vivo autoradiography with [3H]B-17a
Assay type: in vivo, Male Wistar rats
Settings: sc, 10 mg/kg, route SC (subcutaneous), percentage receptor occupancy, ex-vivo autoradiography, striatum
Listing: receptor occupancy at 10 mg/kg of selected compounds
Write the value in % as a bare number.

[[record]]
substance_smiles = "C[C@@H]1CCN(C(=O)c2ccc(F)c(OC(F)F)c2)C[C@H]1c1cc(C(F)F)nc2ncnn12"
observed_property = "receptor occupancy at 10 mg/kg"
measurement_unit = "%"
recorded_value = -3

[[record]]
substance_smiles = "Cc1nccc(C(=O)N2CC[C@@H](C)[C@H](c3cc(C(F)F)nc4ncnn34)C2)c1F"
observed_property = "receptor occupancy at 10 mg/kg"
measurement_unit = "%"
recorded_value = 31

[[record]]
substance_smiles = "C[C@@H]1CCN(C(=O)c2cc(Cl)nc(Cl)c2F)C[C@H]1c1cc(C(F)F)nc2ncnn12"
observed_property = "receptor occupancy at 10 mg/kg"
measurement_unit = "%"
recorded_value = 49

[[record]]
substance_smiles = "C[C@@H]1CCN(C(=O)c2ccc(O)c(C#N)c2)C[C@H]1c1cc(C(F)F)nc2ncnn12"
observed_property = "receptor occupancy at 10 mg/kg"
measurement_unit = "%"
recorded_value = -13

[[record]]
substance_smiles = "C[C@@H]1CCN(C(=O)c2ccc3ocnc3c2)C[C@H]1c1cc(C(F)F)nc2ncnn12"
observed_property = "receptor occupancy at 10 mg/kg"
measurement_unit = "%"
recorded_value = 3


The value of receptor occupancy at 10 mg/kg measured for the compound Cc1c(C(=O)N2CC[C@@H](C)[C@H](c3cc(C(F)F)nc4ncnn34)C2)oc2ccccc12 turned out to be 96

receptor occupancy at 10 mg/kg in this record for Cc1cc(C(=O)N2CC[C@@H](C)[C@H](c3cc(C(F)F)nc4ncnn34)C2)cc(C(F)(F)F)n1 : 76

---

Biological target: Human recombinant PDE10A (hPDE10A) (Homo sapiens)
Construct: His tag (inferred from metal chelate purification); made in house; host or cells: Sf9 insect cells (baculovirus)
Sequence (Q9Y233 267-1055): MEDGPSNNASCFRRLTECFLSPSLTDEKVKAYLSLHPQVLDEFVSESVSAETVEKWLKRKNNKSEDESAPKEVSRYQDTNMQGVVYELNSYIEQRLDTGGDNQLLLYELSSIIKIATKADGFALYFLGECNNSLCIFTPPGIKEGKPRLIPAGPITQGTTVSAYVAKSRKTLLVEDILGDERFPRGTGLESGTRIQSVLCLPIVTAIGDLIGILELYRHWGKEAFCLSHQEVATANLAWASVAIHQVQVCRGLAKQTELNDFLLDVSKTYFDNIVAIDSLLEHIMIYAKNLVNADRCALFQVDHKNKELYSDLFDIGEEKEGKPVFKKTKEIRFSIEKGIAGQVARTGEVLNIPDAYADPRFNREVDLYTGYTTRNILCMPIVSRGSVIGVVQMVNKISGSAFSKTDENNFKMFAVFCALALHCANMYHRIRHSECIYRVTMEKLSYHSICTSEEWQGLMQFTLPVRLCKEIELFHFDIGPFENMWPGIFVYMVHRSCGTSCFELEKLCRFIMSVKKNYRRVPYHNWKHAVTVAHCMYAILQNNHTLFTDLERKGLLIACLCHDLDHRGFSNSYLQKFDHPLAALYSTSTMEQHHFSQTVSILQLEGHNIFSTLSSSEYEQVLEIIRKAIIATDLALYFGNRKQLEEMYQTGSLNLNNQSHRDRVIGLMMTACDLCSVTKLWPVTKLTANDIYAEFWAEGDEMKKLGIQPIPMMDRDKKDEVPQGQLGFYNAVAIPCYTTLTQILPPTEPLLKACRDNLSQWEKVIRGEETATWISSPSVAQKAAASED
Assay: In vitro assay PDE10A, human clone (SPA, 3H-cAMP hydrolysis)
Assay type: biochemical
Settings: human clone (h), default; read-out: hPDE10A2 pIC50 (converted)
observed_property: log10 of IC50 (log10 of the value in nM)
Hey, these are logged values: log10 of IC50, nM being the unit before logging.

Use the examples below as a reference point.
[[record]]
compound = "Cc1oncc1C(=O)N1CC[C@@H](C)[C@H](c2cc(C(F)F)nc3ncnn23)C1 [Compound 260]"
recorded_value = 3.47

[[record]]
compound = "Cc1ncc(C(=O)N2CC[C@@H](C)[C@H](c3cc(C(F)F)nc4ncnn34)C2)cn1 [Compound 244]"
recorded_value = 3.97


Continue with the next compound.
Human recombinant PDE10A (hPDE10A) (Homo sapiens) assay, compound Cc1cc([C@@H]2CN(C(=O)c3cc4c(nc3Cl)CCCC4)CC[C@H]2C)n2ncnc2n1 [Compound 12] , recorded log10 of IC50 = 2.56
